// values below are reported Ferric-Reducing Antioxidant Power TE
Assay: Ferric-reducing antioxidant power (FRAP) assay
Conditions: Trolox equivalents

| Compound | Ferric-Reducing Antioxidant Power TE |
| --- | --- |
| Cc1cc(C(C)(C)C)c(O)c(C(C)(C)C)c1 [BHT, butylated hydroxytoluene, reference compound] | 0.96 |
| CC(C)(C)c1cc(CNCCCCCCCCNc2c3c(nc4ccccc24)CCCCC3)cc(C(C)(C)C)c1O [18d] | 0.45 |
| CC(C)(C)c1cc(C=NCCCCCCCCNc2c3c(nc4ccccc24)CCCCC3)cc(C(C)(C)C)c1O [15d] | 0.73 |
| CC(C)(C)c1cc(CNCCCCCCNc2c3c(nc4ccccc24)CCCC3)cc(C(C)(C)C)c1O [17c] | 0.44 |
| CC(C)(C)c1cc(CNCCCCNc2c3c(nc4ccccc24)CCCCC3)cc(C(C)(C)C)c1O [18b] | 0.38 |
| CC(C)(C)c1cc(CNCCCCNc2c3c(nc4ccccc24)CCC3)cc(C(C)(C)C)c1O [16b] | 0.44 |
| Cc1c(C)c2c(c(C)c1O)CCC(C)(C(=O)O)O2 (stereo not shown) [Trolox, reference compound] | 1.0 |
| CC(C)(C)c1cc(C=NCCCCNc2c3c(nc4ccccc24)CCCCC3)cc(C(C)(C)C)c1O [15b] | 0.46 |
| CC(C)(C)c1cc(C=NCCCCCCCCNc2c3c(nc4ccccc24)CCCC3)cc(C(C)(C)C)c1O [14d] | 0.70 |
| CC(C)(C)c1cc(C=NCCCCCCNc2c3c(nc4ccccc24)CCCCC3)cc(C(C)(C)C)c1O [15c] | 0.52 |
| CC(C)(C)c1cc(C=NCCCCNc2c3c(nc4ccccc24)CCC3)cc(C(C)(C)C)c1O [13b] | 0.60 |
| CC(C)(C)c1cc(CNCCCCCCCCNc2c3c(nc4ccccc24)CCC3)cc(C(C)(C)C)c1O [16d] | 0.61 |
| CC(C)(C)c1cc(CNCCNc2c3c(nc4ccccc24)CCCCC3)cc(C(C)(C)C)c1O [18a] | 0.44 |
